- Test system: rodent lifetime carcinogenesis bioassay, tumor incidence TD50
- protocol.notes: carcinogenic potency in animals, long-term in vivo studies, CPDB compilation (AID 1745844)
- applied.conditions: mouse; strain Swiss albino; males; in drinking water; site: gall bladder; lesion: adenoma; dosed 82 weeks; study length 82 weeks

# smi, TD50
data = [
    ("CN(N)C=O", "15.2 mg/kg/day"),
]

###

- System: rodent lifetime carcinogenesis bioassay, tumor incidence TD50
- protocol.notes: carcinogenic potency in animals, long-term in vivo studies, CPDB compilation (AID 1745844)
- applied.conditions: mouse; strain CBA/Cb/Se; males; by gavage; site: liver; lesion: hepatoma; dosed 36 weeks; study length 74 weeks
Activity calls are given as the source filed them. How the calls were made is not given here.
measured.quantity: TD50

# smi, value.observed
measured = [
    ("NNC(=O)c1ccncc1", "165 mg/kg/day (inactive)"),
]

###

- Tested on: rodent lifetime carcinogenesis bioassay, tumor incidence TD50
- protocol.notes: carcinogenic potency in animals, long-term in vivo studies, CPDB compilation (AID 1745844)
- applied.conditions: mouse; strain Swiss albino; males; in drinking water; site: preputial gland; lesion: squamous-cell carcinoma; dosed 90 weeks; study length 90 weeks

# smi, TD50 [mg/kg/day]
rows = [
    ("CCCCN(N)C=O", 35.6),
]

###

- System: rodent lifetime carcinogenesis bioassay, tumor incidence TD50
- protocol.notes: carcinogenic potency in animals, long-term in vivo studies, CPDB compilation (AID 1745844)
- applied.conditions: rat; strain ACI; males; in feed; site: urinary bladder; lesion: papilloma; dosed 52 weeks; study length 52 weeks
measured.quantity: TD50

# smi, measured.quantity, value.observed
data = [
    ("O=C1NS(=O)(=O)c2ccccc21", "TD50", "1110 mg/kg/day"),
]

###

- Tested on: rodent lifetime carcinogenesis bioassay, tumor incidence TD50
- protocol.notes: carcinogenic potency in animals, long-term in vivo studies, CPDB compilation (AID 1745844)
- applied.conditions: mouse; strain Swiss albino; females; in drinking water; site: lung; lesion: adenocarcinoma; dosed 97 weeks; study length 102 weeks

# smi, TD50, mg/kg/day
rows = [
    ("CN(N)C=O", 1.12),
]

###

- Test system: rodent lifetime carcinogenesis bioassay, tumor incidence TD50
- protocol.notes: carcinogenic potency in animals, long-term in vivo studies, CPDB compilation (AID 1745844)
- applied.conditions: rat; strain Sprague-Dawley; females; inhaled; site: liver; lesion: neoplastic nodule; dosed 81 weeks; study length 103 weeks

# smi, unit, TD50
measured = [
    ("C=CBr", "mg/kg/day", 18.9),
]

###

- Test system: rodent lifetime carcinogenesis bioassay, tumor incidence TD50
- protocol.notes: carcinogenic potency in animals, long-term in vivo studies, CPDB compilation (AID 1745844)
- applied.conditions: rat; strain Charles River CD (Sprague-Dawley); males; in feed; site: forestomach; lesion: papilloma; dosed 43 weeks; study length 69 weeks
measured.quantity: TD50

# compound, value.observed
records = [
    ("C=CC(O)c1ccc2c(c1)OCO2 (stereo unspecified)", "59.8 mg/kg/day"),
]

###

- System: rodent lifetime carcinogenesis bioassay, tumor incidence TD50
- protocol.notes: carcinogenic potency in animals, long-term in vivo studies, CPDB compilation (AID 1745844)
- applied.conditions: mouse; strain C57BL/10J; females; i.p.; site: liver; lesion: hepatocellular carcinoma; dosed 35 weeks; study length 59 weeks

# smi, TD50
rows = [
    ("C=COC(N)=O", "0.503 mg/kg/day"),
]

Sourced from PubChem BioAssay AID1745844
